Target desc: T1, DLL3 (target ligand immobilized on a SA sensor chip via streptavidin capture) (Homo sapiens (Human), UniProt Q9NYJ7 27-492, limits assumed)
T1 sequence: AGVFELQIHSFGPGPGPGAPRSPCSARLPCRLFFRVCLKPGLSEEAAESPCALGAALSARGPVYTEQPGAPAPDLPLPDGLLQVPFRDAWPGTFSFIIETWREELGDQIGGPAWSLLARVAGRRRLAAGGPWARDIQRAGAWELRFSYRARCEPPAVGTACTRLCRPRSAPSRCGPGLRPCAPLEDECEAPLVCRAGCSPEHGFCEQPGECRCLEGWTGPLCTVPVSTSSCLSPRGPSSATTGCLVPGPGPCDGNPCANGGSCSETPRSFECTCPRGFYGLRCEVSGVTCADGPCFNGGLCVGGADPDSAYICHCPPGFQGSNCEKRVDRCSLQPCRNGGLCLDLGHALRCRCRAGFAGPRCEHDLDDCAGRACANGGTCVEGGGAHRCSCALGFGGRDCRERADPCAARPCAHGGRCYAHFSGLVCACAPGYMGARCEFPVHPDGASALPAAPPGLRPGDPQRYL
Assay: SPR, Biacore S200, target ligand on SA chip, 25 C, 1:1 fit
Bridges are numbered along the chain shown (N, C = ends).
Attribute measured: pKd
pKd is defined as minus the log10 of a concentration measured in mol/L.

q: Give its pKd value. Item: Ac-MWTICADWAQCWP-NH2 (disulfide 5-11; SMILES CC[C@H](C)[C@H](NC(=O)[C@@H](NC(=O)[C@H](Cc1c[nH]c2ccccc12)NC(=O)[C@H](CCSC)NC(C)=O)[C@@H](C)O)C(=O)N[C@H]1CSSC[C@@H](C(=O)N[C@@H](Cc2c[nH]c3ccccc23)C(=O)N2CCC[C@H]2C(N)=O)NC(=O)[C@H](CCC(N)=O)NC(=O)[C@H](C)NC(=O)[C@H](Cc2c[nH]c3ccccc23)NC(=O)[C@H](CC(=O)O)NC(=O)[C@H](C)NC1=O) [SEQ ID NO 67]
a: 7.14
